target: human CD3 on cells (human PBMC; Jurkat TCR/CD3 NFAT reporter cells) (human, UniProt P07766 23-207; P04234 22-171; P09693 23-182); test: cell-based or functional assay
Sequence (P07766 23-207, chain 1 of 3): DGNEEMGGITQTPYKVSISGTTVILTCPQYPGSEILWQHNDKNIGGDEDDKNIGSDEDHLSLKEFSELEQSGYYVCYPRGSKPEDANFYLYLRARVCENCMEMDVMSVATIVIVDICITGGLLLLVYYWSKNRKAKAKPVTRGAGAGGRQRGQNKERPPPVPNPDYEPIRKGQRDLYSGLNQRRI
Sequence (P04234 22-171, chain 2 of 3): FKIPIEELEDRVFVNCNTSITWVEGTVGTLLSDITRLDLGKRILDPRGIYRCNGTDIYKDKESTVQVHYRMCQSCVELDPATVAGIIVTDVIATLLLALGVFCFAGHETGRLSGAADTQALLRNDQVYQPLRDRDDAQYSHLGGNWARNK
Sequence (P09693 23-182, chain 3 of 3): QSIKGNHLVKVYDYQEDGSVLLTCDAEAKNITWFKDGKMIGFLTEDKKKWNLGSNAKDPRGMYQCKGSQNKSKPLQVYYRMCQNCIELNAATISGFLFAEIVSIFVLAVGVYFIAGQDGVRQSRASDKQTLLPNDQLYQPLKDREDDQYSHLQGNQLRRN
measurement.type: % of SP34 (%)
The figure you give is taken to be in %; do not add the unit.

Example binders with recorded % of SP34:
[[record]]
binder = "Hu153A6B1-17 (antibody, V domains shown, humanized mAb) VH: EVQLQESGPGLVKPSETLSLTCTVSGFSISSYNIHWVRQPPGKGLEWMGRIRYNGDTSYNSALKSRLTISRDTSKNQVSLKLSSVTAADTAVYYCTRGPYGGSREPLFDYWGQGTMVTVSS VL: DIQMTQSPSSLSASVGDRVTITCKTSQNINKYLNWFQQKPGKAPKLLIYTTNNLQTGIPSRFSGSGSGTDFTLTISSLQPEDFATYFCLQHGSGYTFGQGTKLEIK"
measurement_type = "% of SP34"
data_value = 77.2

[[record]]
binder = "Hu153A6B1-9 (antibody, V domains shown, humanized mAb) VH: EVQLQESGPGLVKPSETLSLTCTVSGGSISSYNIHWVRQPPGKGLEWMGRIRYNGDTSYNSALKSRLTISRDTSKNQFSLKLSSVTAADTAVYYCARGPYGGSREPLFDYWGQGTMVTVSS VL: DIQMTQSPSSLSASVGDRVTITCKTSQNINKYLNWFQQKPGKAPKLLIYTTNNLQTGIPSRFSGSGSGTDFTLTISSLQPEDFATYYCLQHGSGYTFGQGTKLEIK"
measurement_type = "% of SP34"
data_value = 73.6


Attention now shifts to the item below.
% of SP34 lookup needed for Hu153A6B1-4 (antibody, V domains shown, humanized mAb) VH: EVQLQESGPGLVKPSETLSLTCTVSGGSISSYNIHWVRQPPGKGLEWMGRIRYNGDTSYNSALKSRLTISRDTSKNQFSLKLSSVTAADTAVYYCTRGPYGGSREPLFDYWGQGTMVTVSS VL: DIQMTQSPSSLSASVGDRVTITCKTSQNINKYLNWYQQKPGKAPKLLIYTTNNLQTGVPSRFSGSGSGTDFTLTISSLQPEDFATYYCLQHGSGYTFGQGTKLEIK , thanks.
44.1

These entries and their values trace back to patent US20240417469A1.
